So I've got a bunch of molecules here, and I need their pIC50 values.
# Test system: Protein skinhead-1 (Caenorhabditis elegans, UniProt P34707)
Give bare numbers, as −log10 of the molar value.

{"Molecule": "O=C1C=CC(=O)c2c(O)c(N3CCN(CCOCCO)CC3)c(Br)c(O)c21", "pIC50": 4.12}

I need pIC50 for every entry listed below, if you could help.
1. Cc1cc(C)c2ccc3c(C)c(C)[nH]c3c2n1
2. CN(C)c1ccc(N=CCC(=O)c2ccco2)cc1

Result ::
1. 4.39
2. 4.15

* * *

# Test system: UniProt:P34707
# Run conditions: inactive by the depositor's call
Readout label: pIC50
Numbers only, as −log10 of the molar value.

I need pIC50 for every entry listed below, if you could help.
1. Cc1cccc(C=CC(=O)c2ccc(N=C3NCCCS3)cc2)c1
2. Cn1ccs/c1=N/C(=O)c1ccc(OC(F)(F)F)cc1

Result ::
1: 4.10; 2: 4.21

* * *

So I've got a bunch of molecules here, and I need their IC50 values.
# Test system: Protein skinhead-1 (Caenorhabditis elegans)
One number for each entry, in µM.

{"Molecule": "Cc1ccc(N=CCC(=O)c2cccs2)cc1", "Unit of measure": "µM", "IC50": 60.3}
{"Molecule": "O=C(CC=Nc1ccccn1)c1ccccc1", "Unit of measure": "µM", "IC50": 53.7}

I need IC50 for every entry listed below, if you could help.
1. O=C(CC=Nc1ccc(Br)cc1)c1cccnc1 [SMR000225438]
2. O=C1/C(=C/c2ccccn2)CCc2ccccc21

Result ::
68.9
78.5

* * *

So I've got a bunch of molecules here, and I need their IC50 values.
# Test system: Protein skinhead-1 (Caenorhabditis elegans)
# Sequence (P34707 whole entry): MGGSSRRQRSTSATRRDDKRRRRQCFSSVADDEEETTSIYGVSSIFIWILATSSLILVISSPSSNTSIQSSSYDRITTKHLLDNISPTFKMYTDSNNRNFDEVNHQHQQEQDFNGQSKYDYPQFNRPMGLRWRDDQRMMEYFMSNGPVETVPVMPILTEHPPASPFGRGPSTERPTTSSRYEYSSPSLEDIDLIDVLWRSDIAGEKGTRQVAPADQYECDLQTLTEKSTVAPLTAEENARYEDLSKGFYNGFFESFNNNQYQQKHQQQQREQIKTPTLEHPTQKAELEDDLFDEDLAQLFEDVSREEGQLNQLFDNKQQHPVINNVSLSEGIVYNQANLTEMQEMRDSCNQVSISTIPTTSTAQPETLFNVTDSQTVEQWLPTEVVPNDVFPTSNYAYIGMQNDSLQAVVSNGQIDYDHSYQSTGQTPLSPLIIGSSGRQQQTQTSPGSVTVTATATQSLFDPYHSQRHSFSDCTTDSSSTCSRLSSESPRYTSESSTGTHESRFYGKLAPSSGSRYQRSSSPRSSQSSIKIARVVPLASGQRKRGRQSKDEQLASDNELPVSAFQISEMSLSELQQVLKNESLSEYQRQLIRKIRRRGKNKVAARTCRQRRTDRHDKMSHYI
Numbered stars: 1 amine (or outer) side, 2 acyl side, 3 side chain; on linkers, the order of the positions; unused ones are H or OH. Bridge positions count the residues as written; N and C are the ends. Square brackets hold non-standard residues; d marks the D form. Peptide text beside a SMILES is read from it. ξ: configuration not given here. X1 = CC[C@H](CCC[C@@H](O)[C@@H](C)C(=O)O[C@H](C)[C@@H](C)C/C=C(C)\C(=C/C(=O)[*:1])OC)O[*:2]; NMeξIle = CC[C@H](C)C(NC)C(=O)O; NMeV = CN[C@H](C(=O)O)C(C)C; NMeS = CN[C@@H](CO)C(=O)O
Numbers only, in µM.

The examples below pair each entry with its known result.
{"Molecule": "O=C1N[C@@H]2C(=C[C@H](O)[C@@H](O)[C@H]2O)c2cc3c(c(O)c21)OCO3", "Readout label": "IC50", "Unit of measure": "µM", "Numeric readout": 51.4}
{"Molecule": "O=C(CC=Nc1cccc(F)c1)c1cccs1", "Readout label": "IC50", "Unit of measure": "µM", "Numeric readout": 46.7}
{"Molecule": "CCOC(=O)c1c(C)oc2c(F)c(F)c(F)c(F)c2c1=O [SMR000041624]", "Readout label": "IC50", "Unit of measure": "µM", "Numeric readout": 45.5}
{"Molecule": "CC[C@@H]1CCC[C@@H](O)[C@@H](C)C(=O)O[C@H](C)[C@@H](C)C/C=C(C)\\C(OC)=C/C(=O)N(C)C([C@@H](C)CC)C(=O)N(C)[C@@H](C(C)C)C(=O)N(C)[C@@H](COC)C(=O)N2CCC[C@H]2C(=O)N(C)[C@@H](C(C)C)C(=O)N2CCC[C@H]2C(=O)O1 (stereo partly specified) [MLS003235796] ([NMeξIle][NMeV][NMeS](Me)P[NMeV]P; linker N-C via X1)", "Readout label": "IC50", "Unit of measure": "µM", "Numeric readout": 82.4}
{"Molecule": "O=C(C=Cc1ccc(Br)cc1)c1ccc(N=C2NCCCS2)cc1 [MLS000391412]", "Readout label": "IC50", "Unit of measure": "µM", "Numeric readout": 18.3}
{"Molecule": "O=C(CC=Nc1ccc(Br)cc1F)c1ccco1 [SMR000293180]", "Readout label": "IC50", "Unit of measure": "µM", "Numeric readout": 2.19}
{"Molecule": "Nc1ccc(/C=C2\\C=Cc3ccccc32)cc1", "Readout label": "IC50", "Unit of measure": "µM", "Numeric readout": 45}
{"Molecule": "COC(=O)c1cc(=O)nc2sccn12", "Readout label": "IC50", "Unit of measure": "µM", "Numeric readout": 21.9}

I need IC50 for every entry listed below, if you could help.
1. O=C(CC=Nc1ccccc1F)c1cccs1
2. O=C(CC=Nc1ccc(F)cc1F)c1ccco1
3. O=C(CC=Nc1ccc(F)cc1F)c1cccs1
4. Cc1ccc(N=CC(C(=O)c2ccco2)C(=O)C(F)(F)F)cc1Cl (stereo unspecified)
5. Cc1ccc(Cl)c(N=CCC(=O)c2ccccc2)c1
6. CC1CCCCN1Cc1c(O)ccc2c(=O)c(-c3nc4ccccc4s3)c(N)oc12 (stereo unspecified) [SMR000218869]

Result ::
[27.9, 22.7, 5.04, 14.3, 68.8, 6.82]

I need IC50 for every entry listed below, if you could help.
1. O=C(/N=C1\[N-]c2ccc(Br)c[n+]2Cc2ccccc21)c1ccc([N+](=O)[O-])cc1[N+](=O)[O-]
2. Cc1ccc2nc(-c3cccnc3)c(NC3CCCCC3)n2c1

Result ::
[2.78, 23.5]

// provenance: BindingDB's records for doi:10.7270/Q2DV1HH8
